# experimental.system: human ether-à-go-go-related gene (hERG) potassium channel (human)
# Sequence (Q12809 whole entry, looked up): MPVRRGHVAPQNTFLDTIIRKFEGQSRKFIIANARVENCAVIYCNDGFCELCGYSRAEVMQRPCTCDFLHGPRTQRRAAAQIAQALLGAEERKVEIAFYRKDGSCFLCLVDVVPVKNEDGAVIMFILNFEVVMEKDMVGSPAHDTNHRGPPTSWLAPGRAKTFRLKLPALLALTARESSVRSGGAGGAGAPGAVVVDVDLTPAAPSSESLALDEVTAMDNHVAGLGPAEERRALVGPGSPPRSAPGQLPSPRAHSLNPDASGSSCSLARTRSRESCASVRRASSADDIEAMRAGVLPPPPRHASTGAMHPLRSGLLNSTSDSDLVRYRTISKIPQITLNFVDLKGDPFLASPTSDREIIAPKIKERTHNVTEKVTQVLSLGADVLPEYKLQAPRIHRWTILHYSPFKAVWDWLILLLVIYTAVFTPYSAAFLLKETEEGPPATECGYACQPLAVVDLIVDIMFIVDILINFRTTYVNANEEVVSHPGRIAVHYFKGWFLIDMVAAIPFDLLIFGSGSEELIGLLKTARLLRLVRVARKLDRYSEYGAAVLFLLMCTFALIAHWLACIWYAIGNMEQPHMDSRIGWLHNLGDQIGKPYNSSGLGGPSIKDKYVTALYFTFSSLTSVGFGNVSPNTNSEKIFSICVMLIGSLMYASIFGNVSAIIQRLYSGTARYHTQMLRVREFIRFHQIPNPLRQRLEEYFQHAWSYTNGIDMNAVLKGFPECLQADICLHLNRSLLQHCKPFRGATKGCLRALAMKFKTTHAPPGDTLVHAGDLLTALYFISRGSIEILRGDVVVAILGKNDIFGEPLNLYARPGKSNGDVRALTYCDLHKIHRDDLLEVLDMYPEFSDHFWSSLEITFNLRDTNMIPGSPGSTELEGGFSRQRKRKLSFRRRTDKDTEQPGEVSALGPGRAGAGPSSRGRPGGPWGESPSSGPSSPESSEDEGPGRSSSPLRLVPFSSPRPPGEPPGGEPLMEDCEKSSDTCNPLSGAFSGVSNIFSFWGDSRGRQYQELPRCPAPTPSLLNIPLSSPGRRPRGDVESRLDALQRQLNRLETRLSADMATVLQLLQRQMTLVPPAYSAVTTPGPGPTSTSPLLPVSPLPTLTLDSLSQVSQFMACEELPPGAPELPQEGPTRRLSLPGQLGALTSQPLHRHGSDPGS
# assay.overview: primary screen, population patch clamp on CHO cells stably expressing hERG; higher = less effect of the substance
About 14,000 (4.5%) of roughly 310,000 compounds showed an effect of 50% or more. The effect is printed as a negative number. The entries come from a sample that favours strong results as a whole.
recorded.endpoint: hERG current change (%, negative = inhibition) at 10uM

molecule: Cc1ccc(S(=O)(=O)NCC(=O)OCN2C(=O)c3ccccc3C2=O)cc1
experimental.system: human ether-à-go-go-related gene (hERG) potassium channel (human)
measurement: 5.91%

molecule: COc1ccccc1C(=O)N/N=C(\C)c1ccc(NC(=O)C2CC2)cc1
experimental.system: human ether-à-go-go-related gene (hERG) potassium channel (human);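 note: peak tail current of the secondary pulse compared with the same well before compound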
measurement: -3.62%

molecule: O=C(Nc1ccc(-c2noc(-c3cccs3)n2)cc1)c1cccnc1
experimental.system: human ether-à-go-go-related gene (hERG) potassium channel (human);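 note: peak tail current of the secondary pulse compared with the same well before compound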
measurement: -3.79%

molecule: O=C(Cc1cccc2ccccc12)N1CC[C@@]2(O)CCCC[C@H]2C1
experimental.system: human ether-à-go-go-related gene (hERG) potassium channel (human);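 note: peak tail current of the secondary pulse compared with the same well before compound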
measurement: 12.5%

molecule: CCOC(=O)C1C(c2ccc(O)cc2)NC(=O)NC1(O)C(F)(F)F (centres unmarked)
experimental.system: human ether-à-go-go-related gene (hERG) potassium channel (human);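 note: peak tail current of the secondary pulse compared with the same well before compound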
measurement: 2.48%

Origin of the recorded values: paper PMC4336329
